system under test: BabA^AD CL2 disulfide bond (Helicobacter pylori, UniProt O52269)
Sequence (O52269 45-480): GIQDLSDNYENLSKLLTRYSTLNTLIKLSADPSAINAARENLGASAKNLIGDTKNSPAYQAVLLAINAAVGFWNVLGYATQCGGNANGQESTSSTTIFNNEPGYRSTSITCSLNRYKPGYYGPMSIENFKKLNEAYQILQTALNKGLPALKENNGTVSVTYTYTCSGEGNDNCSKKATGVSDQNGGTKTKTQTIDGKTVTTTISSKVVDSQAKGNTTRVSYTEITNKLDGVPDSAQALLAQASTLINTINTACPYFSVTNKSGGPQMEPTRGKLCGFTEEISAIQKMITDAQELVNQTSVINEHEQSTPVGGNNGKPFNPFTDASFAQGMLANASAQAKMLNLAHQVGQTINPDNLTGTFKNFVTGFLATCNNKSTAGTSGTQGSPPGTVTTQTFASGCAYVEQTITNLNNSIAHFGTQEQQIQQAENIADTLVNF
assay summary: Quantitative MS of tryptic digests: CL2 disulfide reduction
readout kind: pEC50
Give bare numbers, as −log10 of the molar value.

Query :: What value of pEC50 has been recorded for this entry: CC(=O)N[C@@H](CS)C(=O)O [NAC, N-acetyl-L-cysteine]
Result :: 1.26
